Test system: BT-549 breast
Assay: NCI-60 one-dose screen, 48 h (100 = growth as untreated, 0 = no growth, -100 = all killed)
Details: 10 µM unless noted
Description: Growth inhibition of the BT-549 human tumor cell line is measured as a screen for anti-cancer activity. Cells are grown in 96 well plates and exposed to the test compound for 48 hours. Compounds are tested at a single concentration, which is 10^-5 M for most compounds. The reported endpoint is percent growth (GI% or GIPRCNT), where numbers from 0 - 100% represent growth inhibition, and numbers from -100% - 0 represent cell death. For example, a value of 40 represents 60% growth inhibition. […]
The panel holds about 83,000 compounds, 20% with a hit somewhere; the sample as a whole holds those more often.
So basically every entry gets a class from its growth, ranges being bin 1: < 20%; bin 2: ≥ 20% and < 70%; bin 3: ≥ 70%

{"columns": ["Molecule", "Assigned Class"],
 "data": [
  ["COc1ccc(N=C(c2ccccc2)C2C(=O)c3ccccc3C2=O)cc1", "bin 3"],
  ["COc1ccc(CNC(=O)C(O)C(Cc2ccccc2)NC(=O)c2[nH]c3ccccc3c(=O)c2C)cc1OC (stereo not given)", "bin 3"],
  ["CC1=C(SCCC(=O)OC(C[Se]C2=C(C)C(=O)c3ccccc3C2=O)C(=O)NCCCCCC(=O)OCc2ccccc2)C(=O)c2ccccc2C1=O (stereo not given)", "bin 2"],
  ["O=S(=O)(NCCCNc1cc(-c2c(-c3cccc(O)c3)nc3sccn23)ccn1)c1cccc(Cl)c1", "bin 2"],
  ["COC(=O)[C@]12CC[C@@H](C)[C@H](C)[C@@H]1C1=CC[C@@H]3[C@@]4(C)C(C=O)=C[C@@](C)(COC(C)=O)[C@@H]4[C@H](O)C[C@@]3(C)[C@]1(C)CC2", "bin 1"],
  ["O=C(Nc1cccc(Oc2nnc(Cl)c3ccccc23)c1)Nc1ccc(Cl)c(C(F)(F)F)c1", "bin 1"],
  ["O=C(/C=C/c1c(Cl)nc2sccn12)c1nccs1", "bin 3"],
  ["C=CCNc1nc(NN2C(=O)c3cccc4cccc(c34)C2=O)nc(-n2cnc3ccccc32)n1", "bin 3"],
  ["COc1nc(N(C)O)nc(N(C)O)n1", "bin 1"]
]}
